These data points were gathered from patent US11021531.

# key: entry, value: kon
- assayed target: SARS-Cov-2 Receptor Binding Domain (RBD) protein (SARS-CoV-2, UniProt P0DTC2 319-541)
- protocol: SPR (Carterra LSA), scFv captured via anti-V5, RBD as analyte, 1:1 fit
Your answer should be a plain number; it is taken to be in M⁻¹ s⁻¹.

{"columns": ["binder", "readout units", "kon"],
 "data": [
  ["COVID19_R01_A04 (scFv, V domains shown) VH: EVQLVESGGGLVQPGGSLRLSCAASGFTFSDHYMSWVRQAPGKGLEWVSAISTSGDSTFYADSVKGRFTISRDNSKNTLYLQMNNLRAEDTAVYYCARDRSYYLDYWGQGTLVTVSS VL: EIVMTQSPATLSVSPGERATLSCRASQSVRSNLAWYQQKPGQAPRLLIYGASTRATGIPARFSGSGSGTEFTLTISSLQSEDFAVYYCQQFGTSPPGLSFGGGTKVEIKR", "M⁻¹ s⁻¹", "1.1e+06"],
  ["COVID19_P04_E10 (scFv, V domains shown) VH: EVQLVESGGGLVQPGGSLRLSCAASGFSFSSYGMSWVRQAPGKGLEWVSAMNRDGSYIYYADSVKGRFTISRDNSKNTLYLQMNSLRAEDTAVYYCARDRSYYVGYWGQGTLVTVSS VL: EIVMTQSPATLSVSPGERATLSCRASQSVRSNLAWYQQKPGQAPRLLIYGASTRATGIPARFSGSGSGTEFTLTISSLQSEDFAVYYCQQRNNWPPTFGGGTKVEIKR", "M⁻¹ s⁻¹", 120000]
]}

Reported kon for COVID19_P04_D08 (scFv, V domains shown) VH: EVQLVESGGGLVQPGGSLRLSCAASGFTFTNYAMTWVRQAPGKGLEWVSTMSNIGGDTYYADSVKGRFTISRDNSKNTLYLQMNSLRAEDTAVYYCARDRRVYLDYWGQGTLVTVSS VL: DIQMTQSPSSLSASVGDRVTITCRASQSISSYLNWYQQKPGKAPKLLIYAASSLQSGVPSRFSGSGSGTEFTLTISSLQSEDFAVYYCQQYGSSPLTFGGGTKVEIKR : what is it?
279000

Would you mind telling me what kon value was observed for COVID19_P04_B03 (scFv, V domains shown) VH: EVQLVESGGGLVQPGGSLRLSCAASGFTFSNHYMSWVRQAPGKGLEWVSAISGSGGSTYYADSVKGRFTISRDNSKNTLYLQMNSLRAEDTAVYYCARDRSYYLDYWGQGTLVTVSS VL: EIVMTQSPATLSVSPGERATLSCRASQSIGTYLSWYQQKPGQAPRLLIYGASTRATGIPARFSGSGSGTEFTLTISSLQSEDFAVYYCQQSLSLPVTFGGGTKVEIKR ?
716000

Return reported kon; argument: COVID19_R01_B10 (scFv, V domains shown) VH: EVQLVESGGGLVQPGGSLRLSCAASGFTVSSNYMSWVRQAPGKGLEWVSVIYPGGSTFYADSVKGRFTISRDNSKNTLYLQMNSLRAEDTAVYYCARDRSYYLDYWGQGTLVTVSS VL: EIVMTQSPATLSVSPGERATLSCRASQSVSSSYLAWYQQKPGQAPRLLIYGASTRATGIPARFSGSGSGTEFTLTISSLQSEDFAVYYCQQASSTPLTFGGGTKVEIKR
96900

Find the recorded kon belonging to COVID19_R01_D02 (scFv, V domains shown) VH: EVQLVESGGGLVQPGGSLRLSCAASGFTFDDYAMHWVRQAPGKGLEWVAIIYEGGSPHYADSVKGRFTISRDNSKNTLYLQMNSLRAEDTAVYYCARDRSGYLDYWGQGTLVTVSS VL: EIVMTQSPATLSVSPGERATLSCRASQSVSNNLAWYQQKPGQAPRLLIYDASTRATGIPARFSGSGSGTEFTLTISSLQSEDFAVYYCQQYNNWPPTFGGGTKVEIKR and report it.
210000

Item under review: COVID19_P04_B09 (scFv, V domains shown) VH: EVQLVESGGGLVQPGGSLRLSCAASGFTFSNSDMNWVRQAPGKGLEWVSAISGTGDTTEYADSVKGRFTISRDNSKNTLYLQMNSLRAEDTAVYYCARDRSLMLDYWGQGTLVTVSS VL: EIVMTQSPATLSVSPGERATLSCRASQSVRSNLAWYQQKPGQAPRLLIYGASTRATGIPARFSGSGSGTEFTLTISSLQSEDFAVYYCQQRNNWPPTFGGGTKVEIKR . Reported kon?
230000
